test: Acute toxicity in Kunming mouse assessed as lethality through intragastric administration observed for 14 days; conditions: in vivo, po
readout_name: LD50 at 336 h

Request: Read off the recorded LD50 at 336 h for CS(=O)(=O)c1ccc(C(=O)Nc2ccc(Cl)c(-c3ccccn3)c2)c(Cl)c1 [VISMODEGIB]
Result: 2010 mg/kg

Request: Report measured LD50 at 336 h; entry is "O=C(Nc1ccc(Cl)c(-c2nnc3c(Cl)cccn23)c1)c1cccc(Cl)c1"
Result: > 5000 mg/kg

Request: Given the molecule "O=C(Nc1ccc(Cl)c(-c2nnc3c(Cl)cccn23)c1)c1ccc(Cl)nc1Cl" , write its reported LD50 at 336 h.
Result: 3880 mg/kg

----------
assay: Acute toxicity in Kunming mouse assessed as mortality at 5000 mg/kg, ig observed for 14 days relative to control; type: organism-based; conditions: in vivo, po, read-out: Activity
readout_name: mortality at 336 h

Request: Item "O=C(Nc1ccc(Cl)c(-c2nnc3c(Cl)cccn23)c1)c1cccc(Cl)c1" : provide mortality at 336 h
Result: 0%

----------
Provide the recorded pIC50 for the entries that follow.
system: T47D; assay: Antiproliferation activity against human T47D cells assessed as reduction in cell viability incubated for 72 hr by MTT assay; type: functional, cell-based
pIC50: −log10 of the molar value.

Request: Give pIC50 for the following molecule: "O=C(Nc1ccc(Cl)c(-c2nnc3c(Cl)cccn23)c1)c1c(F)cccc1Cl"
Result: < 4.00

Request: Please list pIC50 recorded for the molecule "CS(=O)(=O)c1cccc(C(=O)Nc2ccc(Cl)c(-c3nnc4c(Cl)cccn34)c2)c1"
Result: < 4.00

Request: Supply recorded pIC50 for "CS(=O)(=O)c1ccc(C(=O)Nc2ccc(Cl)c(-c3ccccn3)c2)c(Cl)c1" here.
Result: < 4.00

Request: Provide only the value of recorded pIC50 for "O=C(Nc1ccc(Cl)c(-c2nnc3c(Cl)cccn23)c1)c1ccc(C(F)(F)F)cc1F"
Result: 4.15

Request: Answer with the recorded pIC50 for the molecule listed here: "O=C(Nc1ccc(Cl)c(-c2nnc3c(Cl)cccn23)c1)c1cccc(Cl)c1"
Result: 4.52

Request: Let me know recorded pIC50 for "O=C(Nc1ccc(Cl)c(-c2nnc3c(Cl)cccn23)c1)c1ccc(Cl)cc1Cl" , thanks.
Result: < 4.00

Request: // fetch pIC50 given entry "O=C(Nc1ccc(Cl)c(-c2nnc3c(Cl)cccn23)c1)c1ccc(C(F)(F)F)cc1Cl"
Result: < 4.00

Request: Supply recorded pIC50 for "Cc1cc(Cl)ccc1C(=O)Nc1ccc(Cl)c(-c2nnc3c(Cl)cccn23)c1" here.
Result: < 4.00

Request: Return pIC50 (reported value) for this molecule: "O=C(Nc1ccc(Cl)c(-c2nnc3c(Cl)cccn23)c1)c1ccc(C(F)(F)F)nc1Cl"
Result: 4.06

----------
test system: U-251; test: Antiproliferation activity against human U251 cells assessed as reduction in cell viability incubated for 72 hrs by MTT assay; assay type: functional, cell-based; settings: U-251, 72 h
Give IC50 for every item shown.
Unit µM implied. Number only.

Request: # return recorded IC50 for entry "O=C(Nc1ccc(Cl)c(-c2nnc3c(Cl)cccn23)c1)c1ccccc1"
Result: 73.5

Request: Identify measured IC50 corresponding to "O=C(Nc1ccc(Cl)c(-c2nnc3c(Cl)cccn23)c1)c1cccc(Cl)c1"
Result: 43.1

Request: For the molecule "CS(=O)(=O)c1ccc(C(=O)Nc2ccc(Cl)c(-c3nnc4c(Cl)cccn34)c2)c(Cl)c1" , give its reported IC50.
Result: 44.6
